Molecular target: Glucagon receptor (Homo sapiens, UniProt P47871)
Sequence (P47871 whole entry): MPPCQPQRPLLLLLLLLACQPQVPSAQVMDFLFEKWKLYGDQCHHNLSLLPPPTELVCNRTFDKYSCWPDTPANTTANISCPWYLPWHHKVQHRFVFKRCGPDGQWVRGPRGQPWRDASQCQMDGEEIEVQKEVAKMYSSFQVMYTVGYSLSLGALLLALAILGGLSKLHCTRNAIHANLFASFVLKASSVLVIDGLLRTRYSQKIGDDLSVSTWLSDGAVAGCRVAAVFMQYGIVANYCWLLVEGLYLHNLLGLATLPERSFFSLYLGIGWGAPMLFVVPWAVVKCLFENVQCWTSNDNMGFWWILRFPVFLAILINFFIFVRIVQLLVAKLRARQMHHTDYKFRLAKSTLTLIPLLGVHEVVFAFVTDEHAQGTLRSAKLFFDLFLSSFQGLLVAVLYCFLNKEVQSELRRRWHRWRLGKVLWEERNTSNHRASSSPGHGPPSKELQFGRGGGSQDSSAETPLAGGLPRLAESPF
Assay: Antagonist activity at human glucagon receptor expressed in CHO cells assessed as inhibition of forskolin/glucagon-induced cAMP production preincubated for 30 mins before glucagon challenge measured after 30 mins using [125I]-cAMP by liquid scintillation counting
Type: functional, cell-based
Let's look at some compounds and their measured IC50.
Just the number please, in nM, no unit attached.

Reference set (2 entries):
# compound, reported.measurement
rows = [
    ("CC(C)CC[C@@H](Cc1ccc(C(=O)NCCC(=O)O)cc1)C(=O)c1cc2cc(Cl)ccc2n1-c1cccc(C(F)(F)F)c1", 36),
    ("CCCC(Cc1ccc(C(=O)NCCC(=O)O)cc1)C(=O)c1cc2cc(Cl)ccc2n1-c1ccc2c(c1)OCCO2 (single isomer, unassigned)", 49),
]

Now consider the entry below.
Inquiry: Data request, read-out IC50, for CCCC(Cc1ccc(C(=O)NCCC(=O)O)cc1)C(=O)c1cc2cc(Cl)ccc2n1-c1ccc2cc(OC)ccc2c1 (single isomer, unassigned)
Reply text: 95

* * *

Let's look at some molecules and their measured pIC50.
Biological target: Glucagon receptor (Homo sapiens, UniProt P47871)
Experiment: Displacement of [125I]-glucagon from human glucagon receptor expressed in CHO cells after 4 to 12 hrs by scintillation proximity assay
Assay type: cell-based
The read-out pIC50 is expressed as -log10 of concentration in moles per litre.

Reference set (4 entries):
# molecule, pIC50
measured = [
    ("CCCCC[C@@H](Cc1ccc(C(=O)NCCC(=O)O)cc1)C(=O)c1cc2cc(OC)ccc2n1-c1cccc(C(F)(F)F)c1", 7.59),
    ("CCC[C@@H](Cc1ccc(C(=O)NCCC(=O)O)cc1)C(=O)c1cc2cc(Cl)ccc2n1-c1cccc(C(F)(F)F)c1", 7.77),
    ("CC(C)CC[C@@H](Cc1ccc(C(=O)NCCC(=O)O)cc1)C(=O)c1cc2cc(Cl)ccc2n1-c1cccc(C(F)(F)F)c1", 7.77),
    ("CCCC(Cc1ccc(C(=O)NCCC(=O)O)cc1)C(=O)c1cc2cc(Cl)ccc2n1-c1cnc2ccccc2c1 (single isomer, unassigned)", 7.24),
]

Inquiry: Data request, read-out pIC50, for CCCC[C@@H](Cc1ccc(C(=O)NCCC(=O)O)cc1)C(=O)c1cc2cc(Cl)ccc2n1-c1cccc(C(F)(F)F)c1
Reply text: 7.80

Inquiry: Next record, please: CCCCC[C@@H](Cc1ccc(C(=O)NCCC(=O)O)cc1)C(=O)c1cc2cc(F)ccc2n1-c1cccc(C(F)(F)F)c1
Reply text: 8.00

Inquiry: Next record, please: O=C(O)CCNC(=O)c1ccc(C[C@H](CC2CC2)C(=O)c2cc3cc(Cl)ccc3n2-c2cccc(C(F)(F)F)c2)cc1
Reply text: 7.43

Inquiry: Next record, please: CCCC(Cc1ccc(C(=O)NCCC(=O)O)cc1)C(=O)c1cc2cc(Cl)ccc2n1-c1ccc(Cl)c(C(F)(F)F)c1 (single isomer, unassigned)
Reply text: 7.92

Inquiry: Next record, please: CCC[C@H](Cc1ccc(C(=O)NCCC(=O)O)cc1)C(=O)c1cc2cc(Cl)ccc2n1-c1cccc(C(F)(F)F)n1
Reply text: 6.35

Inquiry: Next record, please: CCCC(Cc1ccc(C(=O)NCCC(=O)O)cc1)C(=O)c1cc2cc(Cl)ccc2n1-c1ccc2cc(OC)ccc2c1 (single isomer, unassigned)
Reply text: 7.47

Inquiry: Next record, please: CCCCC[C@@H](Cc1ccc(C(=O)NCCC(=O)O)cc1)C(=O)c1cc2cc(OC(F)(F)F)ccc2n1-c1cccc(C(F)(F)F)c1
Reply text: 8.24

Inquiry: Next record, please: CCCC(Cc1ccc(C(=O)NCCC(=O)O)cc1)C(=O)c1cc2cc(Cl)ccc2n1-c1cccc(F)c1 (single isomer, unassigned)
Reply text: 7.33

Inquiry: Next record, please: CCC[C@@H](Cc1ccc(C(=O)NCCC(=O)O)cc1)C(=O)c1cc2cc(Cl)ccc2n1-c1cccc(C(F)(F)F)n1
Reply text: 8.04

Inquiry: Next record, please: CCCCC[C@@H](Cc1ccc(C(=O)NCCC(=O)O)cc1)C(=O)c1cc2cc(Cl)ccc2n1-c1cccc(C(F)(F)F)c1
Reply text: 8.00

Inquiry: Next record, please: CCCCC[C@@H](Cc1ccc(C(=O)NCCC(=O)O)cc1)C(=O)c1cc2cc(C(F)(F)F)ccc2n1-c1cccc(C(F)(F)F)c1
Reply text: 7.80

Inquiry: Next record, please: CCCC(Cc1ccc(C(=O)NCCC(=O)O)cc1)C(=O)c1cc2cc(Cl)ccc2n1-c1ccc(Cl)cc1 (single isomer, unassigned)
Reply text: 7.49

Inquiry: Next record, please: CCCC(Cc1ccc(C(=O)NCCC(=O)O)cc1)C(=O)c1cc2cc(Cl)ccc2n1-c1ccc(OC(F)(F)F)cc1 (single isomer, unassigned)
Reply text: 7.55

Inquiry: Next record, please: CCCC(Cc1ccc(C(=O)NCCC(=O)O)cc1)C(=O)c1cc2cc(Cl)ccc2n1-c1cccc(OC(F)(F)F)c1 (single isomer, unassigned)
Reply text: 7.62

Inquiry: Next record, please: CCCC(Cc1ccc(C(=O)NCCC(=O)O)cc1)C(=O)c1cc2cc(Cl)ccc2n1-c1cc(Cl)cc(Cl)c1 (single isomer, unassigned)
Reply text: 6.96

Inquiry: Next record, please: CCCC(Cc1ccc(C(=O)NCCC(=O)O)cc1)C(=O)c1cc2cc(Cl)ccc2n1-c1ccc(C(C)(C)C)cc1 (single isomer, unassigned)
Reply text: 7.28

* * *

Biological target: Glucagon receptor (Homo sapiens)
Assay: Antagonist activity at human glucagon receptor expressed in CHO cells assessed as inhibition of forskolin/glucagon-induced cAMP production preincubated for 30 mins before glucagon challenge measured after 30 mins using [125I]-cAMP by liquid scintillation counting
Assay type: functional, cell-based
Let's look at some compounds and their measured pIC50.
The read-out pIC50 is expressed as -log10 of concentration in moles per litre.

# compound, reported.measurement
records = [
    ("CCC[C@@H](Cc1ccc(C(=O)NCCC(=O)O)cc1)C(=O)c1cc2cc(Cl)ccc2n1-c1cccc(C(F)(F)F)c1", 7.26),
    ("CCCC(Cc1ccc(C(=O)NCCC(=O)O)cc1)C(=O)c1cc2cc(Cl)ccc2n1-c1ccc(OC)c(C(F)(F)F)c1 (single isomer, unassigned)", 7.41),
]

Now consider the entry below.
Inquiry: Data request, read-out pIC50, for CCCCC[C@@H](Cc1ccc(C(=O)NCCC(=O)O)cc1)C(=O)c1cc2cc(C)ccc2n1-c1cccc(C(F)(F)F)c1
Reply text: 7.62

* * *

Molecular target: Glucagon receptor (Homo sapiens, UniProt P47871)
Assay: Antagonist activity at human glucagon receptor expressed in CHO cells assessed as inhibition of forskolin/glucagon-induced cAMP production preincubated for 30 mins before glucagon challenge measured after 30 mins using [125I]-cAMP by liquid scintillation counting
Type: functional, cell-based
readout.kind: pIC50
The read-out pIC50 is expressed as -log10 of concentration in moles per litre.

# molecule, reported.measurement
data = [
    ("CCCCC[C@@H](Cc1ccc(C(=O)NCCC(=O)O)cc1)C(=O)c1cc2cc(F)ccc2n1-c1cccc(C(F)(F)F)c1", 7.70),
    ("CCCC(Cc1ccc(C(=O)NCCC(=O)O)cc1)C(=O)c1cc2cc(Cl)ccc2n1-c1cnc2ccccc2c1 (single isomer, unassigned)", 6.14),
    ("CCCC(Cc1ccc(C(=O)NCCC(=O)O)cc1)C(=O)c1cc2cc(Cl)ccc2n1-c1ccc(Cl)c(C(F)(F)F)c1 (single isomer, unassigned)", 7.77),
    ("CCCC[C@@H](Cc1ccc(C(=O)NCCC(=O)O)cc1)C(=O)c1cc2cc(Cl)ccc2n1-c1cccc(C(F)(F)F)c1", 7.38),
    ("CCCCC[C@@H](Cc1ccc(C(=O)NCCC(=O)O)cc1)C(=O)c1cc2cc(OC)ccc2n1-c1cccc(C(F)(F)F)c1", 7.46),
]

Inquiry: Data request, read-out pIC50, for CCCC(Cc1ccc(C(=O)NCCC(=O)O)cc1)C(=O)c1cc2cc(Cl)ccc2n1-c1cccc(F)c1 (single isomer, unassigned)
Reply text: 6.82

Inquiry: Next record, please: CCCCC[C@@H](Cc1ccc(C(=O)NCCC(=O)O)cc1)C(=O)c1cc2cc(Cl)ccc2n1-c1cccc(C(F)(F)F)c1
Reply text: 7.92

* * *

Experiment: Oral bioavailability in dog at 2 mg/kg
Type: ADME, organism-based, Canis lupus familiaris
Conditions: in vivo
readout.kind: bioavailability (%)
Just the number please, in %, no unit attached.

Inquiry: Data request, read-out bioavailability, for CCCCC[C@@H](Cc1ccc(C(=O)NCCC(=O)O)cc1)C(=O)c1cc2cc(Cl)ccc2n1-c1cccc(C(F)(F)F)c1
Reply text: 60

* * *

Target: Glucagon receptor (Homo sapiens)
Assay: Antagonist activity at human glucagon receptor expressed in CHO cells assessed as inhibition of forskolin/glucagon-induced cAMP production preincubated for 30 mins before glucagon challenge measured after 30 mins using [125I]-cAMP by liquid scintillation counting
Type: functional, cell-based
Let's look at some compounds and their measured IC50.
Just the number please, in nM, no unit attached.

Reference set (8 entries):
# compound, IC50 [nM]
records = [
    ("CCC[C@@H](Cc1ccc(C(=O)NCCC(=O)O)cc1)C(=O)c1cc2cc(Cl)ccc2n1-c1cccc(C(F)(F)F)n1", 34),
    ("CCCC(Cc1ccc(C(=O)NCCC(=O)O)cc1)C(=O)c1cc2cc(Cl)ccc2n1-c1cccc(OC(F)(F)F)c1 (single isomer, unassigned)", 35),
    ("CCCC(Cc1ccc(C(=O)NCCC(=O)O)cc1)C(=O)c1cc2cc(Cl)ccc2n1-c1ccc(OC(F)(F)F)cc1 (single isomer, unassigned)", 45),
    ("CCCC(Cc1ccc(C(=O)NCCC(=O)O)cc1)C(=O)c1cc2cc(Cl)ccc2n1-c1ccc(C(C)(C)C)cc1 (single isomer, unassigned)", 52),
    ("CCCC(Cc1ccc(C(=O)NCCC(=O)O)cc1)C(=O)c1cc2cc(Cl)ccc2n1-c1ccc(Cl)cc1 (single isomer, unassigned)", 100),
    ("O=C(O)CCNC(=O)c1ccc(C[C@H](CC2CC2)C(=O)c2cc3cc(Cl)ccc3n2-c2cccc(C(F)(F)F)c2)cc1", 55),
    ("CCCCC[C@@H](Cc1ccc(C(=O)NCCC(=O)O)cc1)C(=O)c1cc2cc(OC(F)(F)F)ccc2n1-c1cccc(C(F)(F)F)c1", 17),
    ("CCCCC[C@@H](Cc1ccc(C(=O)NCCC(=O)O)cc1)C(=O)c1cc2cc(C(F)(F)F)ccc2n1-c1cccc(C(F)(F)F)c1", 44),
]

Now consider the entry below.
Inquiry: Data request, read-out IC50, for CCCC(Cc1ccc(C(=O)NCCC(=O)O)cc1)C(=O)c1cc2cc(Cl)ccc2n1-c1ccc(C(F)(F)F)cc1 (single isomer, unassigned)
Reply text: 30
